Cited source for all entries: patent US9339486B2

Target: CB1 (Homo sapiens (Human), UniProt P21554)
Assay: Radioligand competition binding, CHO-K1 membranes, [3H]SR141716A
Settings: CHO-K1 membranes, 1 nM [3H]SR141716A; read-out: Mean Ki (nM) hCB1

- COMPOUND: "CC1(Cc2ccccc2)COc2cc(C(=O)N3CCCCC3)ccc21 (stereo not shown) [Example 3]"
  Ki: "> 10000 nM"

* * *

Target: hCB1 (human CB1) receptors (Homo sapiens (Human), UniProt P21554)
Experiment: GTPγ[35S] functional assay, CHO membrane extracts hCB1
Conditions: read-out: Agonist EC50 (mean ± s.e. mean) GTPγ[35S] functional assays hCB1
Method: Functional activity was evaluated using GTPγ[^35S] assay in CHO membrane extracts expressing recombinant hCB1 (human CB1) receptors or hCB2 (human CB2) receptors. […] The compound of Example 3 was solubilized in 100% DMSO at a concentration of 10 mM within 4 hours of the first testing session (master solution). […] Then the plates were centrifuged for 10 min at 2000 rpm and counted for 1 min/well with a PerkinElmer TopCount reader. […]

- MOLECULE: "CC1(Cc2ccccc2)COc2cc(C(=O)N3CCCCC3)ccc21 (stereo not shown) [Example 3]"
  MEASURED_ON: "hCB1 (human CB1) receptors (Homo sapiens (Human), UniProt P21554)"
  EC50: "> 10 µM"
